# SUBJECT_OF_TEST: Histone deacetylase 1 (Homo sapiens) (UniProt Q13547)
# Sequence (Q13547 whole entry): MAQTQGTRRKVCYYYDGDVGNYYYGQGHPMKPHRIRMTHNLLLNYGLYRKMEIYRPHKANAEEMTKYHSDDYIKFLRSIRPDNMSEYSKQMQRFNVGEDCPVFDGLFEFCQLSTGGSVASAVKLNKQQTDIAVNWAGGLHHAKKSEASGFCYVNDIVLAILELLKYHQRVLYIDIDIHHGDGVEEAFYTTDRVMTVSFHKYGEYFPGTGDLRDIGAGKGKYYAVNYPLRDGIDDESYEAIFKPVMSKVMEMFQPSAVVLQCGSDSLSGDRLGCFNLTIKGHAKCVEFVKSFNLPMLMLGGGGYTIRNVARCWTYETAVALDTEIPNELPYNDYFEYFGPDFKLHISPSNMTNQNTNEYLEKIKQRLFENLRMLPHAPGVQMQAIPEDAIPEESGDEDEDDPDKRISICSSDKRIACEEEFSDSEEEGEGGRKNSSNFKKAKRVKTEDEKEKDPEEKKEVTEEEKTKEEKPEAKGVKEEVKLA
# EXPERIMENT_NOTES: Inhibition of recombinant HDAC1 at 1 uM after 1 hr by fluorimetric assay
Some compounds, each annotated with its measured inhibition.
PROPERTY_MEASURED: inhibition

{"SMILES_STRING": "CC(C)[C@@H]1NC(=O)[C@]2(C)CSC(=N2)c2csc(n2)CNC(=O)C[C@@H](/C=C/CCSCc2ccccc2O)OC1=O", "PROPERTY_MEASURED": "inhibition", "MEASURED_RESULT": "30%"}
{"SMILES_STRING": "CC(C)[C@@H]1NC(=O)[C@]2(C)CSC(=N2)c2csc(n2)CNC(=O)C[C@@H](/C=C/CCSCc2cccs2)OC1=O", "PROPERTY_MEASURED": "inhibition", "MEASURED_RESULT": "80%"}
{"SMILES_STRING": "CC(C)[C@@H]1NC(=O)[C@]2(C)CSC(=N2)c2csc(n2)CNC(=O)C[C@@H](/C=C/CCSCc2ccccn2)OC1=O", "PROPERTY_MEASURED": "inhibition", "MEASURED_RESULT": "80%"}

----------
# SUBJECT_OF_TEST: Protein deacetylase HDAC6 (Homo sapiens) (UniProt Q9UBN7)
# Sequence (whole entry): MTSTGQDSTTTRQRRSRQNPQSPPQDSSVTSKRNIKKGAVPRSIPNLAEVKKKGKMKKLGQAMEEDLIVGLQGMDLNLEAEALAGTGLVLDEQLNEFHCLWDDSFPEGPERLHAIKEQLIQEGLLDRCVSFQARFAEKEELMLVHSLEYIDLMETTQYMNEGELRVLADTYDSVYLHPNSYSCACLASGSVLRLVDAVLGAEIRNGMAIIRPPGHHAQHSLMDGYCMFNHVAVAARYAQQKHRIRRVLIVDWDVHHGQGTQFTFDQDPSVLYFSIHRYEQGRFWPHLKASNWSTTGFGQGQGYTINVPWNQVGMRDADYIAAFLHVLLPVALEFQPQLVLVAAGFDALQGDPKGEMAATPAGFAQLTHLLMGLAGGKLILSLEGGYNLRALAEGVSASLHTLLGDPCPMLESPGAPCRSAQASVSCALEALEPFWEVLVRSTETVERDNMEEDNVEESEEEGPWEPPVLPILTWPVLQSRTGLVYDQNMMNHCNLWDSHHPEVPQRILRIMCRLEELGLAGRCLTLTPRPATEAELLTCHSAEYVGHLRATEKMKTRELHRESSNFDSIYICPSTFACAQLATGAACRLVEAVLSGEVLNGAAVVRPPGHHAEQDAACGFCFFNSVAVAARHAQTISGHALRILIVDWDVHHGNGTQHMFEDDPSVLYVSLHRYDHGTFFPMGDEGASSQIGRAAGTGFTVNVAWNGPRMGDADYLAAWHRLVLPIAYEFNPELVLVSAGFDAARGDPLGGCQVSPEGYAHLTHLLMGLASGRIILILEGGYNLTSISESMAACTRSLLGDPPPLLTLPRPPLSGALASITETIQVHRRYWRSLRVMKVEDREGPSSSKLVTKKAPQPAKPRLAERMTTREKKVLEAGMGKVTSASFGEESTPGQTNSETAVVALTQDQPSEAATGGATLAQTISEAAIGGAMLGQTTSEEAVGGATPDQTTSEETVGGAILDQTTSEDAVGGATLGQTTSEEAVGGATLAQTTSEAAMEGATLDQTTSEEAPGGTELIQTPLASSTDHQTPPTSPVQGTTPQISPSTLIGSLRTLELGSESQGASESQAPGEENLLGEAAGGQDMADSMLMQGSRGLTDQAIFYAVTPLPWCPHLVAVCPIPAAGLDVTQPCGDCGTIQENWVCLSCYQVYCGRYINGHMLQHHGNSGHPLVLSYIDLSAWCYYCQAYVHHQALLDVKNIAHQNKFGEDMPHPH
# EXPERIMENT_NOTES: Inhibition of recombinant HDAC6 at 1 uM after 1 hr by fluorimetric assay

{"COMPOUND": "CC(C)[C@@H]1NC(=O)[C@]2(C)CSC(=N2)c2csc(n2)CNC(=O)C[C@@H](/C=C/CCSCc2ccccn2)OC1=O", "inhibition": "50%"}
{"COMPOUND": "CCCCCCCC(=O)SCC/C=C/[C@@H]1CC(=O)NCc2nc(cs2)C2=N[C@@](C)(CS2)C(=O)N[C@@H](C(C)C)C(=O)O1 [LARGAZOLE]", "inhibition": "50%"}
{"COMPOUND": "CC(C)[C@@H]1NC(=O)[C@]2(C)CSC(=N2)c2csc(n2)CNC(=O)C[C@@H](/C=C/CCSCc2ccccc2O)OC1=O", "inhibition": "50%"}
{"COMPOUND": "CC(C)[C@@H]1NC(=O)[C@]2(C)CSC(=N2)c2csc(n2)CNC(=O)C[C@@H](/C=C/CCSCc2cccs2)OC1=O", "inhibition": "50%"}

Reference source: ChEMBL document CHEMBL1914325
